Source of measurements: ChEMBL document CHEMBL5042510

Test: MRT in Wistar Han rat at 0.1 mg/kg, iv by LC-MS/MS analysis
Assay type: ADME, organism-based
Settings: in vivo
metric: MRT
Numeric answer plus unit only.

Please report MRT for the following molecule: FC(F)Cn1ncc(Nc2ncc3cc(Cl)c(C4CCN(C5COC5)CC4F)cc3n2)c1Cl (centres undefined)
1.8 h

Return the recorded MRT value; entry: FC1CN(C2COC2)CCC1c1cc2nc(Nc3cnn(C4CC4(F)F)c3Cl)ncc2cc1Cl (centres undefined)
2.7 h

Give reported MRT value for `Cc1c(Nc2ncc3ccc(N4C(=O)OC[C@@H]4C)cc3n2)cnn1C1CCOCC1`
1.6 h

Consider the molecule `Clc1cc2cnc(Nc3cnn(C4CC4)c3Cl)nc2cc1C1CCN(C2COC2)CC1` and give its recorded MRT.
1.5 h
